- TARGET SYSTEM: r-P27S rURAT1 point mutant (Rattus norvegicus, UniProt Q3ZAV1, P27S)
- Sequence (Q3ZAV1 whole entry P27S): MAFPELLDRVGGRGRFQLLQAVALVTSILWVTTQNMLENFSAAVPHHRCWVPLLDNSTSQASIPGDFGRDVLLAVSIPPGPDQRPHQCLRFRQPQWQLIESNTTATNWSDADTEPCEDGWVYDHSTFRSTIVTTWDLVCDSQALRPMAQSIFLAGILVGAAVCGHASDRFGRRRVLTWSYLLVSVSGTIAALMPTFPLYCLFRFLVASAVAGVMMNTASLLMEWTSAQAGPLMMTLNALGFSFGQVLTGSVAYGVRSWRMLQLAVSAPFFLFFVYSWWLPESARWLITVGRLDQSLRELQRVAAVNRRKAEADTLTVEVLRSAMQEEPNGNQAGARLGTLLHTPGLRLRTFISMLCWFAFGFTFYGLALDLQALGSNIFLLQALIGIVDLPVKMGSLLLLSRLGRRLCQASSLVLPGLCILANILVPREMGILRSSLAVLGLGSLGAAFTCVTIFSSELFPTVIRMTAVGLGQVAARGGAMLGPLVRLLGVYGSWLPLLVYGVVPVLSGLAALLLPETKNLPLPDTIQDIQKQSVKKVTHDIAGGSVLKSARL
- TEST METHOD NOTES: URAT1 uric acid transport activity assay
- Type: cell-based
- MEASUREMENT CONDITIONS: r-P27S; MES pH 5.5; 100 μM 14C-uric acid; read-out: IC50 (uric acid transport)
REPORTED METRIC: IC50 (µM)
Hi! Could you send only the number? It should be in µM, unit omitted.

Task: Please look up its IC50: `O=C(O)CSc1nnc(Br)n1-c1ccc(C2CC2)c2ccccc12`
Result: 77

---

- TARGET SYSTEM: r-N35S/M481I rURAT1 double point mutant (Rattus norvegicus, UniProt Q3ZAV1, M481I/N35S)
- Construct: hURAT1 and rURAT1 are 553 amino acid proteins with 12 transmembrane segments; expressed in transfected cells; host or cells: HEK-293T
- Sequence (Q3ZAV1 whole entry N35S/M481I): as the sequence (Q3ZAV1 whole entry P27S) above, with S27P, N35S, M481I counted along it
- TEST METHOD NOTES: URAT1 uric acid transport activity assay
- Type: cell-based
- MEASUREMENT CONDITIONS: r-N35S/M481I; MES pH 5.5; 100 μM 14C-uric acid; read-out: IC50 (uric acid transport)
REPORTED METRIC: IC50 (µM)
Hi! Could you send only the number? It should be in µM, unit omitted.

Task: Query IC50 on r-N35S/M481I rURAT1 double point mutant (Rattus norvegicus, UniProt Q3ZAV1, M481I/N35S) for `O=C(O)CSc1nnc(Br)n1-c1ccc(C2CC2)c2ccccc12`
Result: 29
